Molecular target: HIV-1 HXBc2 gp120 (HIV-1 (HXBc2), UniProt P04578)
Assay: SPR
quantity: pKd
Please treat pKd as minus the base-10 logarithm of the molar concentration.

Below, each entry is followed by its recorded pKd result.
1. Fab m18 I100A (HCDR3) (Fab, V domains shown) VH: VQLLESGPGVVKPSETLSLTCTVSGASVNNYYWTWVRQPPGKGLEWIGNVYDSGDTNYNPSLSSRLSLSMDTSKNQFSLRLSSVTAADTATYYCARYHRHFARGPLSFDYWGRGTLVTVSS VL: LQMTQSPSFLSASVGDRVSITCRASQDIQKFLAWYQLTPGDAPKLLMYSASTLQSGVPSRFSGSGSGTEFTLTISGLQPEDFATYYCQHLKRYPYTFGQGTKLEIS: 8.55
2. Fab m18 K31A (LCDR1) (Fab, V domains shown) VH: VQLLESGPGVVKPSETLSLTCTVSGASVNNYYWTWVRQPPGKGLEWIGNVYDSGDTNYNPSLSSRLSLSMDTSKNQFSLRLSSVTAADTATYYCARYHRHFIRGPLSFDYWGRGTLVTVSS VL: LQMTQSPSFLSASVGDRVSITCRASQDIQAFLAWYQLTPGDAPKLLMYSASTLQSGVPSRFSGSGSGTEFTLTISGLQPEDFATYYCQHLKRYPYTFGQGTKLEIS: 7.73
3. Fab m18 F99Y (HCDR3) (Fab, V domains shown) VH: VQLLESGPGVVKPSETLSLTCTVSGASVNNYYWTWVRQPPGKGLEWIGNVYDSGDTNYNPSLSSRLSLSMDTSKNQFSLRLSSVTAADTATYYCARYHRHYIRGPLSFDYWGRGTLVTVSS VL: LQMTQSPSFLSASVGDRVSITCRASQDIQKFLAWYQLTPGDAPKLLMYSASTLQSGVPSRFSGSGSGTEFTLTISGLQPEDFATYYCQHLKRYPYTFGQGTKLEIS: 9.05
4. Fab m18 (wild type) (Fab, V domains shown) VH: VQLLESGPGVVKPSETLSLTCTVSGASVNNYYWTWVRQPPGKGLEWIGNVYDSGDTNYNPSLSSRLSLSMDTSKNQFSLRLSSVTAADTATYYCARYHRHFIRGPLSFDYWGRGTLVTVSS VL: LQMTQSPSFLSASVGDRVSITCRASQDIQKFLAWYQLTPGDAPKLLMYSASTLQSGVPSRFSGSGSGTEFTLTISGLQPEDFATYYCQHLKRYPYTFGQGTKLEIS: 8.37
5. Fab m18 S52A (LCDR2) (Fab, V domains shown) VH: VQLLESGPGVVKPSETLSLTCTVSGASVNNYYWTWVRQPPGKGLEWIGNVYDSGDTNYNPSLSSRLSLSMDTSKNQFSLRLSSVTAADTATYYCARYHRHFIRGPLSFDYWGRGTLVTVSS VL: LQMTQSPSFLSASVGDRVSITCRASQDIQKFLAWYQLTPGDAPKLLMYSAATLQSGVPSRFSGSGSGTEFTLTISGLQPEDFATYYCQHLKRYPYTFGQGTKLEIS: 9.22

Prompt: Name the recorded pKd for Fab m18 F99A (HCDR3) (Fab, V domains shown) VH: VQLLESGPGVVKPSETLSLTCTVSGASVNNYYWTWVRQPPGKGLEWIGNVYDSGDTNYNPSLSSRLSLSMDTSKNQFSLRLSSVTAADTATYYCARYHRHAIRGPLSFDYWGRGTLVTVSS VL: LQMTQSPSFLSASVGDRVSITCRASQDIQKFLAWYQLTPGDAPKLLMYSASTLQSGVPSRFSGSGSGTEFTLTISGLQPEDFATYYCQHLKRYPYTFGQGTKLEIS .
Response: 8.89
